For each of the compounds below, state its Ca channel human, PDSP raw data, mean.
Test system: Ca channel human
Experiment: PDSP primary binding Ca channel
Settings: primary binding, 10,000 nM; last figure of the line = mean of the 4 before it
Expressed in %, but write only the number.

## Task Fill blank: measured Ca channel human, PDSP raw data, mean of the compound C[C@H]1N=C(c2ccccc2F)c2cc(Cl)ccc2-n2cnc(-c3nc(C4CC4)no3)c21 is ____.
## Result 30.64

## Task Item C#Cc1ccc2c(c1)C(c1ccccn1)=N[C@@H](C)c1c(C(=O)NC)ncn1-2 has what recorded Ca channel human, PDSP raw data, mean?
## Result 14.91

## Task Can you share its Ca channel human, PDSP raw data, mean? I mean this compound: C#Cc1ccc2c(c1)C(c1ccccc1F)=N[C@H](C)c1c(C(=S)N(C)C)ncn1-2
## Result 39.05

## Task Sample CCc1noc(-c2ncn3c2[C@@H](C)N=C(c2ccccc2F)c2cc(C4CC4)ccc2-3)n1 — what was its Ca channel human, PDSP raw data, mean?
## Result 36.53

## Task What value of measured Ca channel human, PDSP raw data, mean is listed for CCc1noc(-c2ncn3c2CN=C(c2ccccc2F)c2cc(C4CC4)ccc2-3)n1 ?
## Result 36.68

## Task Using the record for CCc1noc(-c2ncn3c2[C@@H](C)N=C(c2ccccc2F)c2cc(-c4ccccc4)ccc2-3)n1 , report its Ca channel human, PDSP raw data, mean.
## Result 61.85

## Task Could you tell me which Ca channel human, PDSP raw data, mean is on file for CC(C)c1noc(-c2ncn3c2[C@@H](C)N=C(c2ccccc2F)c2cc(Cl)ccc2-3)n1 ?
## Result 7.04

## Task Give its Ca channel human, PDSP raw data, mean value. Item: C#Cc1ccc2c(c1)C(c1ccccc1Cl)=N[C@H](C)c1c(C(=O)NC)ncn1-2
## Result 9.85

## Task Request the reported Ca channel human, PDSP raw data, mean associated with C#Cc1ccc2c(c1)C(c1ccccc1Cl)=N[C@H](C)c1c(C(=O)N(C)CC)ncn1-2
## Result 22.67

## Task What value of Ca channel human, PDSP raw data, mean has been reported for the following compound? C#Cc1ccc2c(c1)C(c1ccccn1)=N[C@@H](C)c1c(C(=O)N(C)C)ncn1-2
## Result 4.19

## Task Quick one: Ca channel human, PDSP raw data, mean of C[C@H]1N=C(c2ccccc2F)c2cc(-c3ccccc3)ccc2-n2cnc(C(=O)N(C)C)c21 ?
## Result 39.05

## Task Look up Ca channel human, PDSP raw data, mean: CCc1noc(-c2ncn3c2[C@@H](C)N=C(c2ccccc2F)c2cc(Cl)ccc2-3)n1
## Result 16.74

====

Would you mind telling me the reported inhibition at 10 µM of each entry?
Biological target: kappa opioid receptors (KOR) (Homo sapiens)
Sequence (P41145 whole entry): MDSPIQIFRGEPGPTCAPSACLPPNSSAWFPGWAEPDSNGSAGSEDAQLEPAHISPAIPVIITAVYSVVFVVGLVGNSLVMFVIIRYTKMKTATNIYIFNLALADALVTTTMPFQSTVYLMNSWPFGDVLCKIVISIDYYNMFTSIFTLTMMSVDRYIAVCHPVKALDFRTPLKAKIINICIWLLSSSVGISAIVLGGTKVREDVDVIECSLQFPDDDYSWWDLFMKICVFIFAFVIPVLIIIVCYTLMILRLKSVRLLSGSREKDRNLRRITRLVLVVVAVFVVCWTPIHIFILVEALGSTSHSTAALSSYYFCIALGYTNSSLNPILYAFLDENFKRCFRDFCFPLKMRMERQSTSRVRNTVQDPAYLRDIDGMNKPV
Assay: PDSP radioligand binding at KOR
Conditions: 1.5 h; primary binding, 10,000 nM; last figure of the line = mean of the 4 before it; read-out: KOR, PDSP raw data, mean
Number in %, nothing else.

## Task If you can, please state the reported inhibition at 10 µM value of C#Cc1ccc2c(c1)C(c1ccccc1Cl)=N[C@H](C)c1c(C(=O)NC)ncn1-2 .
## Result 69.6

## Task Any idea what its inhibition at 10 µM is? The compound is C#Cc1ccc2c(c1)C(c1ccccc1F)=N[C@H](C)c1c(C(=S)N(C)C)ncn1-2
## Result 53.6

## Task Need inhibition at 10 µM of CCc1noc(-c2ncn3c2[C@@H](C)N=C(c2ccccc2F)c2cc(-c4ccccc4)ccc2-3)n1 , thanks.
## Result 38

## Task Endpoint output: inhibition at 10 µM of CCc1noc(-c2ncn3c2[C@@H](C)N=C(c2ccccc2F)c2cc(C4CC4)ccc2-3)n1 . Value?
## Result 91.3

## Task Name the reported inhibition at 10 µM value associated with the compound C[C@H]1N=C(c2ccccc2F)c2cc(-c3ccccc3)ccc2-n2cnc(C(=O)N(C)C)c21
## Result 53.6

## Task Recorded inhibition at 10 µM of C#Cc1ccc2c(c1)C(c1ccccc1Cl)=N[C@H](C)c1c(C(=O)N(C)CC)ncn1-2 , please.
## Result 69.1

## Task inhibition at 10 µM for C[C@H]1N=C(c2ccccc2F)c2cc(Cl)ccc2-n2cnc(-c3nc(C4CC4)no3)c21 ?
## Result 98.9

## Task Param item = C#Cc1ccc2c(c1)C(c1ccccn1)=N[C@@H](C)c1c(C(=O)N(C)C)ncn1-2 ; retrieve measured inhibition at 10 µM.
## Result -3.79

## Task Fill in: inhibition at 10 µM of C#Cc1ccc2c(c1)C(c1ccccn1)=N[C@@H](C)c1c(C(=O)NC)ncn1-2 is ___
## Result 26.9

## Task Find the recorded inhibition at 10 µM belonging to CCc1noc(-c2ncn3c2CN=C(c2ccccc2F)c2cc(C4CC4)ccc2-3)n1 and report it.
## Result 96.3

## Task Recorded inhibition at 10 µM for CCc1noc(-c2ncn3c2[C@@H](C)N=C(c2ccccc2F)c2cc(Cl)ccc2-3)n1 , please?
## Result 96.4

## Task Entry under review: CC(C)c1noc(-c2ncn3c2[C@@H](C)N=C(c2ccccc2F)c2cc(Cl)ccc2-3)n1 . Reported inhibition at 10 µM?
## Result 99.2

====

Target: UniProt P16257
Sequence (P16257 whole entry): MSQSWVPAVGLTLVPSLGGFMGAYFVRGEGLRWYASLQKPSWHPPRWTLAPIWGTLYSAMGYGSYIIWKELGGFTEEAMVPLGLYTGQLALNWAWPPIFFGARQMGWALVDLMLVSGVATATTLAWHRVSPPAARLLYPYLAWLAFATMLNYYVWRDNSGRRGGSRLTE
Test: PDSP radioligand binding at PBR
Conditions: 1.5 h, primary binding, 10,000 nM; last figure of the line = mean of the 4 before it; some tables list PBR twice; read-out: PBR, PDSP raw data, mean
Experimental: The compounds were also screened at PDSP to determine any binding with peripheral benzodiazepine receptors (PBR). A number of biological processes are associated with PBR. […] The binding of a ligand to a receptor, ion channel, or transporter was determined in the […] of 10 µM of the appropriate reference compound. Nonspecific binding was also determined in the absence and presence of 10 µM of the appropriate reference compound. […] Radioactivity was then counted on a Microbeta counter. […]
Everything with inhibition at 10 µM lower than 60% is label 0; everything else, including exactly 60%, is label 1.

## Task Check if inhibition at 10 µM >= 60% (inclusive). Item: CCc1noc(-c2ncn3c2CN=C(c2ccccc2F)c2cc(C4CC4)ccc2-3)n1
## Result label 1

## Task Can C[C@H]1N=C(c2ccccc2F)c2cc(Cl)ccc2-n2cnc(-c3nc(C4CC4)no3)c21 be said to have inhibition at 10 µM at or above 60%?
## Result label 1

## Task Check if inhibition at 10 µM >= 60% (inclusive). Item: C#Cc1ccc2c(c1)C(c1ccccn1)=N[C@@H](C)c1c(C(=O)N(C)C)ncn1-2
## Result label 0

## Task Can C#Cc1ccc2c(c1)C(c1ccccc1Cl)=N[C@H](C)c1c(C(=O)N(C)CC)ncn1-2 be said to have inhibition at 10 µM at or above 60%?
## Result label 0

## Task Is the recorded value of inhibition at 10 µM equal to or greater than 60% for this molecule? C#Cc1ccc2c(c1)C(c1ccccc1Cl)=N[C@H](C)c1c(C(=O)NC)ncn1-2
## Result label 0

## Task Can CCc1noc(-c2ncn3c2[C@@H](C)N=C(c2ccccc2F)c2cc(C4CC4)ccc2-3)n1 be said to have inhibition at 10 µM at or above 60%?
## Result label 1

## Task Item CCc1noc(-c2ncn3c2[C@@H](C)N=C(c2ccccc2F)c2cc(-c4ccccc4)ccc2-3)n1 with inhibition at 10 µM of 60% or above?
## Result label 1

## Task Is it the case that CCc1noc(-c2ncn3c2[C@@H](C)N=C(c2ccccc2F)c2cc(Cl)ccc2-3)n1 has inhibition at 10 µM reaching or exceeding 60%?
## Result label 0

====

Please provide measured inhibition at 10 µM for the entries that follow.
Target: H3 (Homo sapiens)
Construct: purchased NIMH Psychoactive Drug Screening Program (PDSP)
Sequence (Q9Y5N1 whole entry): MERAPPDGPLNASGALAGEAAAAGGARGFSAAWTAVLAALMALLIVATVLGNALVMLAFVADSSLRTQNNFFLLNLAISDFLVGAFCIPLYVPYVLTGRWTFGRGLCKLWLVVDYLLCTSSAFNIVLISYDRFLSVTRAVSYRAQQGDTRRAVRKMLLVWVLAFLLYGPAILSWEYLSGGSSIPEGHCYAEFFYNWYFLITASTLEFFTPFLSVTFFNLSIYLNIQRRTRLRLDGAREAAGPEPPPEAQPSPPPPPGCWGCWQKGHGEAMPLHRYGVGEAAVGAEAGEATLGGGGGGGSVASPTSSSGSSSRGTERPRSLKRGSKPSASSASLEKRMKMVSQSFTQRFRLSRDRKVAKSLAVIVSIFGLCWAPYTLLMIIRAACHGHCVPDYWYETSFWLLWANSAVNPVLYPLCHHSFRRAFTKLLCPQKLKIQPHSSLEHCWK
Test: PDSP primary binding H3
Conditions: primary binding, 10,000 nM; last figure of the line = mean of the 4 before it; read-out: H3, PDSP raw data, mean
Report as a plain number; the unit % is understood.

## Task Field request: inhibition at 10 µM | item: C[C@H]1N=C(c2ccccc2F)c2cc(-c3ccccc3)ccc2-n2cnc(C(=O)N(C)C)c21
## Result 5.94

## Task Dear colleague, I am looking for the recorded inhibition at 10 µM of the following molecule: CCc1noc(-c2ncn3c2[C@@H](C)N=C(c2ccccc2F)c2cc(C4CC4)ccc2-3)n1
## Result -6.39

## Task Entry under review: CCc1noc(-c2ncn3c2[C@@H](C)N=C(c2ccccc2F)c2cc(Cl)ccc2-3)n1 . Reported inhibition at 10 µM?
## Result -0.81

## Task Any idea what inhibition at 10 µM was measured for CCc1noc(-c2ncn3c2[C@@H](C)N=C(c2ccccc2F)c2cc(-c4ccccc4)ccc2-3)n1 ?
## Result 4.89

====

Molecular target: DOR (Homo sapiens, UniProt P41143)
Construct: purchased NIMH Psychoactive Drug Screening Program (PDSP)
Sequence (P41143 whole entry): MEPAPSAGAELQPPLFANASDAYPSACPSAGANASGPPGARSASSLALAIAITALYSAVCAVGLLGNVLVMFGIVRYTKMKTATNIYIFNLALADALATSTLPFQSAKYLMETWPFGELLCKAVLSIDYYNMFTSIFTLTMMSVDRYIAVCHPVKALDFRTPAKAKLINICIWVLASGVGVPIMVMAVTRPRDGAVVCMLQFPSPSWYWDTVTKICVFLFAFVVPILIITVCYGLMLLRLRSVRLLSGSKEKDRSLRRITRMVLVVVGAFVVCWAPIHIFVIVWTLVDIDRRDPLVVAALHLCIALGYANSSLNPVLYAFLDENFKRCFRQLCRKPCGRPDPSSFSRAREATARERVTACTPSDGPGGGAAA
Experiment: PDSP radioligand binding at DOR
Details: primary binding, 10,000 nM; last figure of the line = mean of the 4 before it; read-out: DOR, PDSP raw data, mean
PARAMETER: inhibition at 10 µM (%)
Express it in %; write the number only.

## Task Field request: inhibition at 10 µM | item: C#Cc1ccc2c(c1)C(c1ccccn1)=N[C@@H](C)c1c(C(=O)N(C)C)ncn1-2
## Result 6.18

## Task Which inhibition at 10 µM is reported for this molecule? CC(C)c1noc(-c2ncn3c2[C@@H](C)N=C(c2ccccc2F)c2cc(Cl)ccc2-3)n1
## Result 31.9

## Task Look up inhibition at 10 µM for this molecule: C#Cc1ccc2c(c1)C(c1ccccc1Cl)=N[C@H](C)c1c(C(=O)NC)ncn1-2
## Result 28.3

## Task Fill blank: measured inhibition at 10 µM of the molecule C#Cc1ccc2c(c1)C(c1ccccn1)=N[C@@H](C)c1c(C(=O)NC)ncn1-2 is ____.
## Result 14.9
